Could you please report measured abundance fitness for the items listed next?
B1: Intersectin-1, residues 909 to 971; numbered along this chain, Q15811 (parent)
chain: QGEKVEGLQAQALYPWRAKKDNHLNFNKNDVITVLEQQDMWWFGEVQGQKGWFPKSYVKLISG

variants of: B1; assay: abundance fitness (aPCA) (normalised: wild type 0, dead -1); higher = more abundant; growth selection in yeast, the domain comes from the species named; details: Homo sapiens
Give only the figure.

Problem: Need abundance fitness, item `P15I`
Solution: -0.127

Problem: Field entry: `V46N`
Solution: -0.309

Problem: Field entry: `N27A`
Solution: -0.114

Problem: Field entry: `K50L`
Solution: -0.383

Problem: Field entry: `N29H`
Solution: 0.104

Problem: Field entry: `I32M`
Solution: -0.446

Problem: Field entry: `F26C`
Solution: -0.723

Problem: Field entry: `R17H`
Solution: -0.108

Problem: Field entry: `Q37H`
Solution: -0.274

Problem: Field entry: `L24E`
Solution: -0.591

Problem: Field entry: `E6F`
Solution: -0.178

Problem: Field entry: `L13Q`
Solution: -0.2

Problem: Field entry: `N22V`
Solution: -0.313

Problem: Field entry: `W52P`
Solution: -0.721

Problem: Field entry: `H23C`
Solution: -0.492

Problem: Field entry: `Y57Q`
Solution: -0.14

Problem: Field entry: `L35C`
Solution: 0.145

Problem: Field entry: `E3V`
Solution: -0.293

Problem: Field entry: `Q9S`
Solution: -0.083

Problem: Field entry: `L24I`
Solution: -0.359

Problem: Field entry: `Q9N`
Solution: 0.012

Problem: Field entry: `E6I`
Solution: -0.29

Problem: Field entry: `Q1S`
Solution: -0.334

Problem: Field entry: `M40F`
Solution: -0.233

Problem: Field entry: `E45D`
Solution: -0.223

Problem: Field entry: `S56E`
Solution: -0.178

Problem: Field entry: `Y57I`
Solution: -0.289

Problem: Field entry: `N22L`
Solution: -0.279

Problem: Field entry: `R17L`
Solution: -0.021

Problem: Field entry: `Y57P`
Solution: -1.02

Problem: Field entry: `Q9G`
Solution: -0.331

Problem: Field entry: `V31R`
Solution: -0.03

Problem: Field entry: `G51V`
Solution: -0.97

Problem: Field entry: `G7V`
Solution: 0.076

Problem: Field entry: `K4A`
Solution: -0.159

Problem: Field entry: `S56A`
Solution: -0.137

Problem: Field entry: `A10S`
Solution: -0.506

Problem: Field entry: `N25P`
Solution: -0.451

src = the Human Domainome abundance scans (Beltran et al. 2025)
